From: patent US6355799B1

For each record, write down the corresponding Pre-emerge Herbicidal Activity CHEAL (phytotoxicity rating, scale 0-100).
- System: lambsquarters (Chenopodium album, CHEAL)
- TEST_DETAILS: Pre-emerge test, greenhouse herbicide activity screening
- Assay type: in vivo
- CONDITIONS_USED: 63 g ai/ha; pre-emerge; rated 14 days after application; 0 = no damage, 100 = complete death

What Pre-emerge Herbicidal Activity CHEAL (phytotoxicity rating, scale 0-100) value was documented for this compound, CCOC(=O)COc1c(Cl)cc(F)c(-n2c(=O)cc(C(F)(F)F)n(C)c2=O)c1N [Compound 1-59] ? 100

Input COc1c(Cl)cc(F)c(-n2c(=O)cc(C(F)(F)F)n(C)c2=O)c1N(C(C)=O)C(C)=O [Compound 2-2] 100

Input COc1c(Cl)cc(F)c(-n2c(=O)cc(C(F)(F)F)n(C)c2=O)c1NC(=O)C=C(C)C [2-7] 100

Input COc1c(Cl)cc(F)c(-n2c(=O)c(NC(=O)C(F)(F)F)c(C(F)(F)F)n(C)c2=O)c1NC(=O)C(F)(F)F [2-12] 0

Input COc1c(Cl)cc(F)c(-n2c(=O)cc(C(F)(F)F)n(C)c2=O)c1N(C(=O)C=C(C)C)C(=O)C=C(C)C [2-8] 60

Input COc1c(Cl)cc(F)c(-n2c(=O)cc(C(F)(F)F)n(C)c2=O)c1N=C(Cl)C(Cl)(Cl)Cl [Compound 1-30] 85

Input COc1c(Cl)cc(F)c(-n2c(=O)cc(C(F)(F)F)n(C)c2=O)c1N1CCCC1 [Compound 1-32] 90

Input COc1c(Cl)cc(F)c(-n2c(=O)cc(C(F)(F)F)n(C)c2=O)c1NC(=O)c1ccc(C)cc1 [2-24] 100

Input Cn1c(C(F)(F)F)cc(=O)n(-c2c(F)cc(Cl)c(OC(F)F)c2N)c1=O [Compound 1-38] 100

----------
- Test system: large crabgrass (Digitaria sanguinalis, DIGSA)
- TEST_DETAILS: Pre-emerge test, greenhouse herbicide activity screening
- Assay type: in vivo
- CONDITIONS_USED: 250 g ai/ha; rated 14 days after application; 0 = no damage, 100 = complete death
READOUT: Pre-emerge Herbicidal Activity, phytotoxicity rating (0-100), DIGSA
The answer should be a number; do not append a unit.

What Pre-emerge Herbicidal Activity, phytotoxicity rating (0-100), DIGSA value was documented for this compound, COc1c(Cl)cc(F)c(-n2c(=O)cc(C(F)(F)F)n(C)c2=O)c1NC(=O)c1ccc(Br)cc1 [2-61] ? 100

Input COc1c(Cl)cc(F)c(-n2c(=O)cc(C(F)(F)F)n(C)c2=O)c1N(C(=O)c1ccc([N+](=O)[O-])cc1)C(=O)c1ccc([N+](=O)[O-])cc1 [2-69] 90

Input COc1c(Cl)cc(F)c(-n2c(=O)cc(C(F)(F)F)n(C)c2=O)c1NC(=O)C=Cc1ccc(Cl)cc1 [2-84] 0

Input COc1c(Cl)cc(F)c(-n2c(=O)cc(C(F)(F)F)n(C)c2=O)c1NC(=O)c1cccc(Cl)c1 [2-54] 100

Input COc1c(Cl)cc(F)c(-n2c(=O)cc(C(F)(F)F)n(C)c2=O)c1NC(=O)c1ccc(C)c(C)c1 [2-32] 100

Input COc1c(Cl)cc(F)c(-n2c(=O)cc(C(F)(F)F)n(C)c2=O)c1NC(=O)c1ccc(Cl)c(Cl)c1 [2-59] 100

Input Cn1c(C(F)(F)F)cc(=O)n(-c2c(F)cc(Cl)c(OCC#N)c2NC(=O)CCc2ccccc2)c1=O [2-87] 100

----------
- Tested on: green foxtail (Setaria viridis, SETVI)
- TEST_DETAILS: Post-emerge test, greenhouse herbicide activity screening
- Type: in vivo
- CONDITIONS_USED: post-emerge, 63 g ai/ha, 14 days after application, rating scale 0-100
READOUT: phytotoxicity rating SETVI
The answer should be a number; do not append a unit.

What phytotoxicity rating SETVI value was documented for this compound, COc1c(Cl)cc(F)c(-n2c(=O)cc(C(F)(F)F)n(C)c2=O)c1NC(=O)Nc1ccccc1 ? 0

Input COc1c(Cl)cc(F)c(-n2c(=O)cc(C(F)(F)F)n(C)c2=O)c1NC(=O)OCc1cc(C)cc(C)c1 90

Input COc1c(Cl)cc(F)c(-n2c(=O)cc(C(F)(F)F)n(C)c2=O)c1NC(=O)OCc1ccc2ccccc2c1 10

Input Cn1c(C(F)(F)F)cc(=O)n(-c2ccc(C(N)=S)cc2NC(=O)c2ccc3ccccc3c2)c1=O 10

Input COc1c(Cl)cc(F)c(-n2c(=O)cc(C(F)(F)F)n(C)c2=O)c1NC(=O)c1ccc2c(c1)OCO2 50

Input COc1c(Cl)cc(F)c(-n2c(=O)cc(C(F)(F)F)n(C)c2=O)c1NC(=O)Oc1ccccc1C(C)(C)C 0

Input COc1c(Cl)cc(F)c(-n2c(=O)cc(C(F)(F)F)n(C)c2=O)c1NC(=O)c1ccc(C#N)cc1 20

Input Cn1c(C(F)(F)F)cc(=O)n(-c2ccc(Cl)cc2NC(=O)OCc2ccccc2F)c1=O 30

Input Cc1ccccc1COC(=O)Nc1c(C)c(Cl)cc(F)c1-n1c(=O)cc(C(F)(F)F)n(C)c1=O 90

Input COc1c(Cl)cc(F)c(-n2c(=O)cc(C(F)(F)F)n(C)c2=O)c1NC(=O)C=Cc1ccccc1 30

Input COc1c(Cl)cc(F)c(-n2c(=O)cc(C(F)(F)F)n(C)c2=O)c1NC(=O)C=Cc1ccco1 0

Input COc1c(Cl)cc(F)c(-n2c(=O)cc(C(F)(F)F)n(C)c2=O)c1NC(=O)OCc1ccc(Cl)c(Cl)c1 30

Input COc1c(Cl)cc(F)c(-n2c(=O)cc(C(F)(F)F)n(C)c2=O)c1NC(=O)OCc1ccc2c(c1)OCO2 95

Input Cn1c(C(F)(F)F)cc(=O)n(-c2c(F)cc(Cl)c(OCC#N)c2N(C(=O)c2ccc(F)cc2F)C(=O)c2ccc(F)cc2F)c1=O 0

----------
- Tested on: field corn (Zea mays L., var. Dekalb 535, CORN)
- TEST_DETAILS: Post-emerge test, crop safety
- Format: in vivo
- CONDITIONS_USED: post-emerge, 63 g ai/ha, 14 days after application, rating scale 0-100
Lab note: cut-off is 10. Strictly less in CORN phytotoxicity rating (crop damage) is MET. Exactly 10 or more is NOT MET.

Is it true that CORN phytotoxicity rating (crop damage) reported for COc1c(Br)cc(F)c(-n2c(=O)cc(C(F)(F)F)n(C)c2=O)c1N(C(=O)C=Cc1ccccc1)C(=O)C=Cc1ccccc1 [2-176] is less than 10? MET

Input COc1c(Cl)cc(F)c(-n2c(=O)cc(C(F)(F)F)n(N)c2=O)c1NC(=O)C=Cc1ccccc1 MET

Input C=Cc1ccc(C(=O)Nc2c(OC)c(Br)cc(F)c2-n2c(=O)cc(C(F)(F)F)n(C)c2=O)cc1 MET

Input CCSCC(=O)Nc1c(OC)c(Cl)cc(F)c1-n1c(=O)cc(C(F)(F)F)n(C)c1=O MET

Input COc1c(Cl)cc(F)c(-n2c(=O)cc(C(F)(F)F)n(C)c2=O)c1NC(=O)C(C#N)=Cc1ccccc1 NOT MET

Input CCOC(=O)COc1c(Cl)cc(F)c(-n2c(=O)cc(C(F)(F)F)n(C)c2=O)c1NC(=O)C=Cc1ccccc1 MET

Input COc1c(Cl)cc(Cl)c(-n2c(=O)cc(C(F)(F)F)n(C)c2=O)c1NC(=O)c1ccc2ccccc2c1 NOT MET

Input Cn1c(C(F)(F)F)cc(=O)n(-c2c(F)cc(Cl)cc2NC2CC2)c1=O NOT MET

Input COc1c(Cl)cc(F)c(-n2c(=O)cc(C(F)(F)F)n(C)c2=O)c1NC(=O)CCc1ccccc1C NOT MET

----------
- System: ivyleaf morningglory (Ipomoea hederacea, IPOHE)
- TEST_DETAILS: Pre-emerge test, greenhouse herbicide activity screening
- Assay type: in vivo
- CONDITIONS_USED: 63 g ai/ha; phytotoxicity rating 0-100, 14 days after application
Lab note: cut-off is 50. Strictly less in Pre-emerge Herbicidal Activity IPOHE is Condition met. Exactly 50 or more is Condition not met.

Is it true that Pre-emerge Herbicidal Activity IPOHE reported for COc1c(Cl)cc(F)c(-n2c(=O)cc(C(F)(F)F)n(C)c2=O)c1NC(=O)N(Cc1ccccc1)c1ccccc1 [Compound 3-23] is less than 50? Condition met

Input COc1c(Cl)ccc(-n2c(=O)cc(C(F)(F)F)n(C)c2=O)c1NC(=O)c1ccc2ccccc2c1 [2-202] Condition not met

Input COc1c(Cl)cc(F)c(-n2c(=O)cc(C(F)(F)F)n(C)c2=O)c1NC(=O)OCc1ccccc1[N+](=O)[O-] [4-34] Condition met

Input COc1c(Cl)cc(F)c(-n2c(=O)cc(C(F)(F)F)n(C)c2=O)c1NC(=O)OCc1cccc(F)c1 [4-44] Condition not met

Input COc1c(Cl)cc(F)c(-n2c(=O)cc(C(F)(F)F)n(C)c2=O)c1NC(=O)OCc1ccc2ccccc2c1 [4-28] Condition met

Input COc1c(Cl)cc(F)c(-n2c(=O)cc(C(F)(F)F)n(C)c2=O)c1NC(=O)OCc1ccc(OC(F)(F)F)cc1 [4-45] Condition met

Input COc1c(Cl)cc(F)c(-n2c(=O)cc(C(F)(F)F)n(C)c2=O)c1NC(=O)OCc1c(F)cccc1F [4-29] Condition not met

Input COc1c(Cl)cc(F)c(-n2c(=O)cc(C(F)(F)F)n(C)c2=O)c1NC(=O)OCc1ccc(Cl)c(Cl)c1 [4-32] Condition met

Input COc1c(Cl)cc(F)c(-n2c(=O)cc(C(F)(F)F)n(C)c2=O)c1NC(=O)Nc1ccccc1 [Compound 3-4] Condition met

Input CC(C)Oc1c(Cl)cc(F)c(-n2c(=O)cc(C(F)(F)F)n(C)c2=O)c1NC(=O)c1ccc2ccccc2c1 [2-197] Condition met

Input COc1c(Cl)cc(F)c(-n2c(=O)cc(C(F)(F)F)n(C)c2=O)c1NC(=O)OCc1c(F)c(F)c(F)c(F)c1F [4-48] Condition not met
